B1: tRNA (parent)
chain: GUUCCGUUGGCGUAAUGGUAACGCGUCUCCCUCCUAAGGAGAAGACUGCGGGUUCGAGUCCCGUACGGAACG

Variants of: B1
Assay: yeast fitness relative to wild type (ratio to wild type); higher = fitter; tRNA-Arg(CCU), competitive growth, 37 C, YPD
This sample holds only a part of the variants without activity.
Could you label it Y if measured yeast fitness is 0.7 or higher, and N otherwise?

| variant id | category |
| --- | --- |
| C30A A37C G41A A43U G44C | N |
| C4U A15U | Y |
| C5G C46U A57C | N |
| A43U G68A | N |
| G17A C33G A40U A45G A65G | N |
| U28G C31G A45U C46G G58A | N |
| C24G C31G C61G | N |
| G9A C33U A37U | N |
| A21G C22G G25A G63A A69U | N |
| U26G A69C | Y |
| U2G C49U | Y |
